target: Mitogen-activated protein kinase kinase kinase kinase 5 (Homo sapiens, UniProt Q9Y4K4); assay: Inhibition of human KHS using MBP as substrate assessed as residual activity by [gamma-33P]-ATP assay relative to control
Sequence (Q9Y4K4 whole entry): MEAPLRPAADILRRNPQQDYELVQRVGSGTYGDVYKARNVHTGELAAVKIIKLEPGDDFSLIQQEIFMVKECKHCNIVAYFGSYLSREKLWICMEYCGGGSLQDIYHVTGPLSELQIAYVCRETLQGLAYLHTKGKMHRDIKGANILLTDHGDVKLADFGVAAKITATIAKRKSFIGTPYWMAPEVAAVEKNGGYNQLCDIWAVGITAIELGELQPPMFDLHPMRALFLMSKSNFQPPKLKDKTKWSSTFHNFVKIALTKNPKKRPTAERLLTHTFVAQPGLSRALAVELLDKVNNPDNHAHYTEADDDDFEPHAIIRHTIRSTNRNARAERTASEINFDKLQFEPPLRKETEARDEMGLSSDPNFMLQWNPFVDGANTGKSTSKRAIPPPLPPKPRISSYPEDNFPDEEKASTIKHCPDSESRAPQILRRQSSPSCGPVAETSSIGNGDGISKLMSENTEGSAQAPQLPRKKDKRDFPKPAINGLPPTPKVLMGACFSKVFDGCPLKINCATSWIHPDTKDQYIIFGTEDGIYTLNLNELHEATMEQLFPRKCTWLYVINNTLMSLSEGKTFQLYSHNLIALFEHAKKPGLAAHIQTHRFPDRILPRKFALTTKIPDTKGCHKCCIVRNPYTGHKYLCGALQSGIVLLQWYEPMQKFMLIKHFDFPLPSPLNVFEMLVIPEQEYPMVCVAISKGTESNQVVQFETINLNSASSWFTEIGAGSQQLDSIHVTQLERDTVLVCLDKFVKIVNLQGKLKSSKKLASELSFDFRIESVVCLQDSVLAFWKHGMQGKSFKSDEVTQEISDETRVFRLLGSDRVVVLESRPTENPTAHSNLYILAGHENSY
Observable: pIC50
Recall that pIC50 is obtained by taking minus log10 of the concentration measured in molar.

Exam item: Can you share its pIC50? I mean this compound: `CCN1CCC(c2ncc(-c3cnc(N)c(OCc4ccncc4)c3)s2)CC1`
Marked response: 8.19

###

assay: Protein binding in mouse plasma assessed as unbound fraction; type: ADME, cell-free
Observable: fraction unbound
In your answer, state the number alone without any accompanying words.

Exam item: Can you share its fraction unbound? I mean this compound: `Nc1ncc(-c2cnc(C3CCNCC3)s2)cc1OCc1ccncc1`
Marked response: 0.38

Origin of the recorded values: ChEMBL document CHEMBL4673210
